Recorded values, source paper PMC9482650.

Biological target: T1, NHERF3_4, Q5T2W1
T1 sequence (Q5T2W1 373-468, limits assumed, looked up): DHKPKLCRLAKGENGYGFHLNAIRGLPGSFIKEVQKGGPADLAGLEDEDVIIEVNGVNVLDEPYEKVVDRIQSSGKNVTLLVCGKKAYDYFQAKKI
Test: holdup assay
Set-up: key: below the threshold = too weak to quantify, mostly under pKd 3.1 to 4
Details: plain residues with an end cap or a label only (N-terminal biotin on a linker: ado-ado)
metricName: pKd

IKAIVDLTGL [TRAF2, Q12933] ... below the threshold
PAPSSGKDYV [CLDN1, O95832] ... below the threshold
SAKVRTVTSV [RASL11B, Q9BPW5] ... below the threshold
SNAGNTATKA [NOSTRIN, Q8IVI9] ... below the threshold
FNSYSLTGYV [CLDN2, P57739] ... below the threshold
GSGAVEMESV [AQP6, Q13520] ... below the threshold
PRISRSQSEL [CCDC134, Q9H6E4] ... below the threshold
SKENVQETQI [LRRC4B, Q9NT99] ... below the threshold
